# targetOfAssay: T1, pKal catalytic domain Mutant 1 (human, UniProt P03952 391-638, limits assumed)
# T1 construct: catalytic domain with His tag from Pichia pastoris
# T1 sequence (P03952 other isoform, or with tags, fused parts or gaps mutant limits assumed): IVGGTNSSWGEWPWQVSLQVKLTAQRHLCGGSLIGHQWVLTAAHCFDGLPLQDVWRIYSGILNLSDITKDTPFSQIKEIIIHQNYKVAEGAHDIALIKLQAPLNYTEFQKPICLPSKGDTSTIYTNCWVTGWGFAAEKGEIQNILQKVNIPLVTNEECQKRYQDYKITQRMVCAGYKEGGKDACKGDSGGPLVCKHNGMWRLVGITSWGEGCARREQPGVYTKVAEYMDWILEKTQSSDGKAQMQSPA
# assay: Ki,app, enzyme inhibition
quantity: pKi
Please note pKi is a logarithmic value: minus log10 of concentration in mol/L. Answer with that number alone.

Q: Request the reported pKi associated with M6-D09 (Fab, V domains shown, also called M06-D09; 559A-M06-D09) VH: EVQLLESGGGLVQPGGSLRLSCAASGFTFSFYYMVWVRQAPGKGLEWVSVIYPSGGITVYADSVKGRFTISRDNSKNTLYLQMNSLRAEDTAVYYCARDKWAVMPPYYYYAMDVWGQGTTVTVSS VL: DIQMTQSPSSLSASVGDRVTITCRASQSIRNYLNWYQQKPGKAPNLLIYAASTLQSGVPARFSGSGSGTDFTLTISSLQPEDFATYYCQQLSGYPHTFGQGTKLEIK
Result: 8.47

Q: Reported pKi, binder X115-F02 (Fab, V domains shown, also called 559A-X115-F02; 559A-X0115-F02) VH: EVQLLESGGGLVQPGGSLRLSCAASGFTFSHYIMMWVRQAPGKGLEWVSGIYSSGGITVYADSVKGRFTISRDNSKNTLYLQMNSLRAEDTAVYYCAYRRIGVPRRDEFDIWGQGTMVTVSS VL: DIQMTQSPSTLSASVGDRVTITCRASQSISSWLAWYQQKPGKAPKLLIYKASTLESGVPSRFSGSGSGTEFTLTISSLQPDDFATYYCQQYNTYWTFGQGTKVEIK : ____
Result: 9.85

Q: For the binder shown here, X115-G04 (antibody, V domains shown, also called 559A-X115-G04; 559A-X0115-G04) VH: EVQLLESGGGLVQPGGSLRLSCAASGFTFSHYIMMWVRQAPGKGLEWVSGIYSSGGITVYADSVKGRFTISRDNSKNTLYLQMNSLRAEDTAVYYCAYRRTGVPRRDEFDIWGQGTMVTVSS VL: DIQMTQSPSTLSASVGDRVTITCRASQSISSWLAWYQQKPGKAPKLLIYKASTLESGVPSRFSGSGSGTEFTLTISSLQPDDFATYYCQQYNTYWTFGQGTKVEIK , give the reported pKi.
Result: 9.40
